System: SYO-1 complex spheroid growth, percent test/control
Test: Anticancer human tumor SYO-1 cell line growth inhibition [Asc];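 also: compound exposure lasted 7 days after spheroids grew 3 days; 100% = DMSO vehicle control viability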
Conditions: second compound 10 µM; first compound 0.1 µM; active compounds read low
Entries and their measured viability, T/C follow.

These solved cases illustrate the format of a correct answer.
Cn1ncnc1[C@H]1c2n[nH]c(=O)c3cc(F)cc(c23)N[C@@H]1c1ccc(F)cc1 + Cc1c(S(C)(=O)=O)c(-c2cc(F)cc(N3CCN(c4ccc(NS(=O)(=O)c5ccc(NC(CCN6CCC(C(=O)OCCCP(=O)(O)O)CC6)CSc6ccccc6)c(S(=O)(=O)C(F)(F)F)c5)cc4)CC3)c2)c(-c2ccc(Cl)cc2)n1C(C)C | 2.36%
CCN1CCN(Cc2ccc(Nc3ncc(F)c(-c4cc(F)c5nc(C)n(C(C)C)c5c4)n3)nc2)CC1 + Cc1c(S(C)(=O)=O)c(-c2cc(F)cc(N3CCN(c4ccc(NS(=O)(=O)c5ccc(NC(CCN6CCC(C(=O)OCCCP(=O)(O)O)CC6)CSc6ccccc6)c(S(=O)(=O)C(F)(F)F)c5)cc4)CC3)c2)c(-c2ccc(Cl)cc2)n1C(C)C | 94.2%

// switching to the query molecule
Q) Request the reported viability, T/C associated with O=C(c1cc(Cc2n[nH]c(=O)c3ccccc23)ccc1F)N1CCN(C(=O)C2CC2)CC1 + Cc1c(S(C)(=O)=O)c(-c2cc(F)cc(N3CCN(c4ccc(NS(=O)(=O)c5ccc(NC(CCN6CCC(C(=O)OCCCP(=O)(O)O)CC6)CSc6ccccc6)c(S(=O)(=O)C(F)(F)F)c5)cc4)CC3)c2)c(-c2ccc(Cl)cc2)n1C(C)C
A) 81.1%
